All figures here come from patent US20240391936A1.

The listing below reports IC50 for molecules tested on DDR1 (Homo sapiens, UniProt Q08345).
Sequence (Q08345 19-913): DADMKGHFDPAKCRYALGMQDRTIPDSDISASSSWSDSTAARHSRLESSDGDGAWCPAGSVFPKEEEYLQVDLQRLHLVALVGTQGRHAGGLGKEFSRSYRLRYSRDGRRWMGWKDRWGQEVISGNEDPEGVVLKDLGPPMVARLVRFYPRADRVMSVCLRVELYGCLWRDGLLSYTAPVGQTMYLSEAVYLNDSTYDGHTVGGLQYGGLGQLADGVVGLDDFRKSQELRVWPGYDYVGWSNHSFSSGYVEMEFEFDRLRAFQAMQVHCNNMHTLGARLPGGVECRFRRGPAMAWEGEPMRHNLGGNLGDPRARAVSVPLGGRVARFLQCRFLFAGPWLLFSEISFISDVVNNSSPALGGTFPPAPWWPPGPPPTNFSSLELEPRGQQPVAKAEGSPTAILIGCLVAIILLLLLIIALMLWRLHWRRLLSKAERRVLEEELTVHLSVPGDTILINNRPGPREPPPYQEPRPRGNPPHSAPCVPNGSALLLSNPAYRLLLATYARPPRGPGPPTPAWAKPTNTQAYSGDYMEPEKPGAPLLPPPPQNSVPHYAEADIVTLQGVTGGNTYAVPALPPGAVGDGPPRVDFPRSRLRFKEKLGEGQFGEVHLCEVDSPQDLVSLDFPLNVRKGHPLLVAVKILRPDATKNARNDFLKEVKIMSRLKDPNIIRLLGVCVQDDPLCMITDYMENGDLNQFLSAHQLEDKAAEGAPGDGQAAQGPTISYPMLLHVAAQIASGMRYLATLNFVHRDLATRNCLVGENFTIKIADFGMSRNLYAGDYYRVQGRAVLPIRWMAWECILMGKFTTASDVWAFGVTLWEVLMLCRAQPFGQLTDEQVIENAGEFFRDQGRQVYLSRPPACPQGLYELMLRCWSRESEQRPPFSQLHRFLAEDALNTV

Solved cases (3 shown):
molecule	IC50
O=C(Nc1cncc(C(F)(F)F)c1)c1csc2c1CCN(Cc1cnn3ccncc13)C2 [Example 154]	50 to 80 nM
O=C(Nc1cc(F)cc(C(F)(F)F)c1)c1csc2c1CCN(C(=O)c1cnc3ccccn13)C2 [Example 46]	< 25 nM
O=C(Nc1cncc(C(F)(F)F)c1)c1csc2c1CCN(C(=O)c1cnn3ccncc13)C2 [Example 108]	< 25 nM

Task: Tell us which IC50 value is on record for O=C(Nc1cccc(C(F)(F)F)c1)c1csc2c1CCN(Cc1cnc3[nH]ncc3c1)C2 [Example 85]
Result: < 25 nM

----------
- study_system: DDR2 (Homo sapiens, UniProt Q16832)
- Sequence (Q16832 22-855): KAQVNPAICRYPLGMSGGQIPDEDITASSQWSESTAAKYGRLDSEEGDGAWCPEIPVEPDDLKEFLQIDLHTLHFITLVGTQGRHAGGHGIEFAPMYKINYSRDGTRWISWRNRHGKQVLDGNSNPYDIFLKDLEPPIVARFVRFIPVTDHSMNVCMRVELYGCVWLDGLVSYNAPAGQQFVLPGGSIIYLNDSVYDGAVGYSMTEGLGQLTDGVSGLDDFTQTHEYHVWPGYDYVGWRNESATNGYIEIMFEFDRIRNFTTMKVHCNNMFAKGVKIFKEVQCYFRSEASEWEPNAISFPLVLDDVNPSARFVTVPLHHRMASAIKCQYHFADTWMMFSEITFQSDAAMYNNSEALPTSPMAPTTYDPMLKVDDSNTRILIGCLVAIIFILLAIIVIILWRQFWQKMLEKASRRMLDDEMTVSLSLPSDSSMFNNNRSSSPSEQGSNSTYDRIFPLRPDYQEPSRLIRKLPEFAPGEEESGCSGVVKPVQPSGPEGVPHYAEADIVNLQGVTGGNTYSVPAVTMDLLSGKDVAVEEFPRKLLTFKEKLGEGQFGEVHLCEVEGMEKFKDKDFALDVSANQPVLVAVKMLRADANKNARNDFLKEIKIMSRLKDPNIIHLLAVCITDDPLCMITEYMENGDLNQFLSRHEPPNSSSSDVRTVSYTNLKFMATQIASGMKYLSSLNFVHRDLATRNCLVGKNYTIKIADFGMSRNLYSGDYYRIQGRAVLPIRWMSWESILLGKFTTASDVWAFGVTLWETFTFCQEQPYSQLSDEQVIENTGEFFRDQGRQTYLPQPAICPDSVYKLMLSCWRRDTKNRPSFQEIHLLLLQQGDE
- test_details: DDR2 binding assay (LanthaScreen Europium Kinase Binding assay)
- Parameters: purchased Life Technologies
- setup_conditions: binding assay, 5 nM DDR2, 10 nM Kinase Tracer 178; Ki from IC50 by Cheng-Prusoff; read-out: Ki DDR2
Kindly supply the reported Ki values for the records listed here.

compound	Ki
CC(C)(C)c1cc(NC(=O)c2csc3c2CCN(C(=O)c2cnc4ccccn24)C3)n(CCO)n1	< 25 nM
Cn1nc(C2CCC2)cc1NC(=O)c1csc2c1CCN(C(=O)c1cnc3ccccn13)C2	< 25 nM
CN1CC=C(c2ccc3ncc(C(=O)N4CCc5c(C(=O)Nc6cccc(C(F)(F)F)c6)csc5C4)n3c2)CC1	< 25 nM

Could I get Ki for every one of these entries?
1. CN(C)[C@@H]1CCN(Cc2cc(NC(=O)c3csc4c3CCN(C(=O)c3cnc5ccccn35)C4)cc(C(F)(F)F)c2)C1
2. O=C(Nc1cc(CN2CC3CC2CO3)cc(C(F)(F)F)c1)c1csc2c1CCN(C(=O)c1cnc3ccccn13)C2 (stereo not shown)

Result:
< 25 nM
< 25 nM

Could I get Ki for every one of these entries?
1. CN1CCC(Oc2ccc(NC(=O)c3csc4c3CCN(C(=O)c3cnc5ccccn35)C4)cc2C(F)(F)F)C1 (stereo not shown)
2. O=C(Nc1ccc(CO)c(C(F)(F)F)c1)c1csc2c1CCN(C(=O)c1cnn3ccncc13)C2

Result:
< 25 nM
< 25 nM

----------
The listing below reports IC50 for molecules tested on DDR1 (Homo sapiens, UniProt Q08345).

molecule	val
O=C(Nc1cccc(C(F)(F)F)c1)c1csc2c1CCN(Cc1cnc3cccnn13)C2	50 to 80 nM
O=C(Nc1cncc(C(F)(F)F)c1)c1csc2c1CCN(C(=O)c1cnc3n1CCOC3)C2	25 to 50 nM
COc1ccn2ncc(C(=O)N3CCc4c(C(=O)Nc5cncc(C(F)(F)F)c5)csc4C3)c2c1	< 25 nM
O=C(Nc1cc(CN2CCC(F)C2)cc(C(F)(F)F)c1)c1csc2c1CCN(C(=O)c1cnc3ccccn13)C2 (stereo not shown)	25 to 50 nM

Could I get IC50 for every one of these entries?
1. CCCc1cc(NC(=O)c2csc3c2CCN(C(=O)c2cnc4ccccn24)C3)n(C)n1
2. CC(C)(C)c1coc(NC(=O)c2csc3c2CCN(C(=O)c2cnc4ccccn24)C3)n1
3. O=C(Nc1cccc(C(F)(F)F)c1)c1csc2c1CCN(C(=O)c1cnc3ccc(OCCO)cn13)C2

Result:
1. 25 to 50 nM
2. 25 to 50 nM
3. < 25 nM

----------
- study_system: DDR2 (Homo sapiens)
- Sequence (Q16832 22-855): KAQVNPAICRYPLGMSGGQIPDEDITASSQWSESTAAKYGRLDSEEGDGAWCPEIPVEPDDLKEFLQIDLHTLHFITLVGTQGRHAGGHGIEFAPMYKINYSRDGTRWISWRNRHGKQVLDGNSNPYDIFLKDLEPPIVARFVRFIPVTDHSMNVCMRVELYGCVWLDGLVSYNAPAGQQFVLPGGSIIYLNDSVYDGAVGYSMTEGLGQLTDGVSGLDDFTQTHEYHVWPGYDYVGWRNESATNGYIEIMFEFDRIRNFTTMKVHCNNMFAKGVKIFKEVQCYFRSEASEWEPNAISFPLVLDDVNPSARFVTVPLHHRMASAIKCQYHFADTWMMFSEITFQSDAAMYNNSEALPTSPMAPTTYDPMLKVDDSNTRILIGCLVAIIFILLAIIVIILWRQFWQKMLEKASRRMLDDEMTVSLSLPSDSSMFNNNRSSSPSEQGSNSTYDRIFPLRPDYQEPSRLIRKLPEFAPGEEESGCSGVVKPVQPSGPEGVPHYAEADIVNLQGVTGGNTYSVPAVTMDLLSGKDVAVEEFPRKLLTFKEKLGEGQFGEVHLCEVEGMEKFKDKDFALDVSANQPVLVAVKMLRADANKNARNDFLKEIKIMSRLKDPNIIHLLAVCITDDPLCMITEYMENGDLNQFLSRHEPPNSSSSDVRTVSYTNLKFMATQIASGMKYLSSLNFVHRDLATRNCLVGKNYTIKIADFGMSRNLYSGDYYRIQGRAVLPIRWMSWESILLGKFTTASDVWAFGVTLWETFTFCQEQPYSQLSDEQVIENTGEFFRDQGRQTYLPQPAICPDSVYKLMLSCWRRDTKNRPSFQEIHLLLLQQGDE
- test_details: DDR2 cell based assay (phospho-ELISA in HEK293T-DDR2 recombinant cells)
- setup_conditions: bovine Type II Collagen 50 μg/ml
quantity_name: IC50

Solved cases (10 shown):
compound_structure	val
Cc1cn(-c2cc(NC(=O)c3csc4c3CCN(C(=O)c3cnc5ccccn35)C4)cc(C(F)(F)F)c2)cn1	< 25 nM
O=C(Nc1cccc(OC(F)(F)F)c1)c1csc2c1CCN(Cc1cnc3[nH]ccc3c1)C2	< 25 nM
CC(C)(c1cc(NC(=O)c2csc3c2CCN(C(=O)c2cnc4ccccn24)C3)no1)C(F)(F)F	< 25 nM
CC(C)(C)c1cc(NC(=O)c2csc3c2CCN(Cc2cnc4[nH]ncc4c2)C3)on1	< 25 nM
O=C(Nc1ccc(CN2CCOCC2)c(C(F)(F)F)c1)c1csc2c1CCN(C(=O)c1cnc3ccccn13)C2	25 to 50 nM
O=C(Nc1cccc(C(F)(F)F)c1)c1csc2c1CCN(C(=O)c1cnn3ccncc13)C2	< 25 nM
O=C(Nc1cccc(C(F)(F)F)c1)c1csc2c1CCN(C(=O)c1cnc3cnccn13)C2	< 25 nM
Cc1n[nH]c2ncc(CN3CCc4c(C(=O)Nc5cncc(C(F)(F)F)c5)csc4C3)cc12	< 25 nM
O=C(Nc1cccc(C(F)(F)F)c1)c1csc2c1CCN(Cc1cnc3cnccn13)C2	< 25 nM
O=C(Nc1cc(F)cc(C(F)(F)F)c1)c1csc2c1CCN(C(=O)c1cnc3ccccn13)C2	< 25 nM

Could I get IC50 for every one of these entries?
1. O=C(Nc1cc(F)cc(C(F)(F)F)c1)c1csc2c1CCN(Cc1cnc3[nH]ncc3c1)C2
2. O=C(Nc1cccc(C(F)(F)F)c1)c1csc2c1CCN(Cc1ccnc3[nH]ccc13)C2
3. Cc1n[nH]c2ncc(CN3CCc4c(C(=O)Nc5cc(C(C)(C)C)nn5C)csc4C3)cc12
4. O=C(Nc1cncc(C(F)(F)F)c1)c1csc2c1CCN(Cc1cnc3[nH]ncc3c1)C2
5. Cn1nc(C(C)(C)C)cc1NC(=O)c1csc2c1CCN(C(=O)c1cnc3ccccn13)C2
6. CC1(C)c2scc(C(=O)Nc3cccc(C(F)(F)F)c3)c2CCN1C(=O)c1cnc2ccccn12
7. CN1CCN(Cc2cc(NC(=O)c3csc4c3CCN(C(=O)c3cnc5ccccn35)C4)cc(C(F)(F)F)c2)CC1
8. O=C(Nc1cccc(C(F)(F)F)c1)c1csc2c1CCN(Cc1cnc3[nH]ncc3c1)C2

Result:
1: 25 to 50 nM; 2: < 25 nM; 3: < 25 nM; 4: < 25 nM; 5: < 25 nM; 6: 25 to 50 nM; 7: < 25 nM; 8: < 25 nM

Could I get IC50 for every one of these entries?
1. COc1ccc(NC(=O)c2csc3c2CCN(Cc2cnc4[nH]ccc4c2)C3)cc1C(F)(F)F
2. CN1CCN(c2ccc3ncc(C(=O)N4CCc5c(C(=O)Nc6cncc(C(F)(F)F)c6)csc5C4)n3c2)CC1

Result:
< 25 nM
25 to 50 nM
